tested on: Fibroblast; experiment: Multiplex assay against human fibroblast; type: toxicity, cell-based; details: 12 h, 1 µM, compound concentration 1 uM, replicate 2
resultType: Population Mitochondria Different-Phenotype (%)
Give the number first and the unit second.

>  <compound>
Cc1nc(N2CC[C@H](O)C2)ncc1-c1cc(C(F)(F)F)cc2[nH]ncc12

>  <obsValue>
28%

$$$$
>  <compound>
C=CC(=O)Nc1cccc(Sc2nc(Nc3ccc(N4CCN(C)CC4)cc3)ncc2Cl)c1

>  <obsValue>
33%

$$$$
>  <compound>
CNC(=O)Nc1ccc(-c2nc(N3CC4CCC(C3)O4)c3cnn(C4CCC5(CC4)OCCO5)c3n2)cc1

>  <obsValue>
13%

$$$$
>  <compound>
C=CC(=O)Nc1ccc2[nH]c(=O)n(C3CCN(Cc4ccc(-c5nc6cc[nH]c(=O)c6cc5-c5ccccc5)cc4)CC3)c2c1 [Borussertib]

>  <obsValue>
0%

$$$$
>  <compound>
Cc1cccc(CN2CCN(C(c3ccccc3)c3ccc(Cl)cc3)CC2)c1.Cl.Cl (stereo not drawn)

>  <obsValue>
26%

$$$$
>  <compound>
CC(C)OC(=O)N1CCC(Oc2ncnc3c2cnn3-c2ccc(S(C)(=O)=O)cc2F)CC1

>  <obsValue>
8%

$$$$
>  <compound>
COc1ccc(-c2ccc3ncc4c(c3c2)n(-c2ccc(N3CCNCC3)c(C(F)(F)F)c2)c(=O)n4C)cn1.O=C(O)/C=C\C(=O)O [BGT-226]

>  <obsValue>
94%

$$$$

Now look at this entry.
Query :: Annotate the compound CCCSc1nc(N[C@@H]2C[C@H]2c2ccc(F)c(F)c2)c2nnn([C@@H]3C[C@H](OCCO)[C@@H](O)[C@H]3O)c2n1 [TICAGRELOR] with its measured Population Mitochondria Different-Phenotype (%).
Result :: 18%

----------
test system: Fibroblast; test: Multiplex assay against human fibroblast; assay type: toxicity, cell-based; conditions: 24 h, 10 µM, compound concentration 10 uM, replicate 1
Provide the recorded Population Normal (%) for the entries that follow.
Answers are plain numbers, in %.

>  <molecule>
O=c1cc(N2CCOCC2)oc2c(-c3cccc4c3sc3ccccc34)cccc12

>  <resultType>
Population Normal (%)

>  <unitDescriptor>
%

>  <obsValue>
85

$$$$
>  <molecule>
COc1ccc(-c2ccc3ncc4c(c3c2)n(-c2ccc(N3CCNCC3)c(C(F)(F)F)c2)c(=O)n4C)cn1.O=C(O)/C=C\C(=O)O

>  <resultType>
Population Normal (%)

>  <unitDescriptor>
%

>  <obsValue>
73

$$$$
>  <molecule>
CC(C)c1noc(N2CCC(COc3ccc(-c4ccc(S(C)(=O)=O)cc4)nc3)CC2)n1

>  <resultType>
Population Normal (%)

>  <unitDescriptor>
%

>  <obsValue>
89

$$$$

Parameter requested: Population Normal (%). Apply to each item below.
1. Cc1cccc(CN2CCN(C(c3ccccc3)c3ccc(Cl)cc3)CC2)c1.Cl.Cl (stereo not drawn)
2. Cc1ccc(C)c(Oc2ccncc2C(=O)N2CCN(C3CC3)c3ccccc32)c1
3. COc1cc(Nc2nccc(-c3cnn4nc(OC)ccc34)n2)cc(C(F)(F)F)c1
4. CN1CCN(Cc2ccc(Nc3ncc(Cl)c(Nc4ccccc4S(=O)(=O)N(C)C)n3)cc2)CC1

Result ::
1: 85; 2: 93; 3: 45; 4: 84

Query :: # return Population Normal (%) of "CNC(=O)Nc1ccc(-c2nc(N3CC4CCC(C3)O4)c3cnn(C4CCC5(CC4)OCCO5)c3n2)cc1" (system: Fibroblast)
Result :: 81
